Entries and their measured Inhibition follow.
- Tested on: Plasmodium falciparum
- ASSAY_EXPLANATION: GSK_TCMDC: Inhibition of Plasmodium falciparum Dd2 in whole red blood cells, using parasite LDH activity as an index of growth. Test compounds present at 2uM
- Type: functional
MEASURED_PARAMETER: Inhibition (%)

COc1ccccc1Cn1ccnc1SCC(=O)Nc1cc(C(F)(F)F)ccc1Cl
97
CCCC(N)C(=O)NC1CCN(c2c(F)c(N)c3c(=O)c(C(=O)O)cn4c3c2Oc2ccccc2-4)C1.Cl (stereo not given)
98
CCCNCc1ccc(-c2ccc(CN(CCOC)C(=O)c3cnc(C)cn3)cc2)nc1.O=C(O)C(F)(F)F
14
C=C1N(C)c2cc([N+](=O)[O-])c(N)cc2C1(C)C
83
CC1CN(c2nc(NCCc3ccc(O)cc3)nc(NCc3ccccc3-c3ccc(C(F)(F)F)cc3)n2)CC(C)N1 (stereo not given)
68
